# system.tested: Tubulin (Homo sapiens) (UniProt P68371+Q9H4B7+P0DPH7+P68366+Q13509+Q71U36+P04350+Q3ZCM7+P07437+P68363+Q9BQE3+Q6PEY2+Q13885+Q9BVA1+Q9BUF5)
# assay.procedure: Induction of GTP-tubulin polymerization
# Type: protein-complex assay
property.name: ED50 (µM)

[P] CC(=O)O[C@H]1C(=O)[C@@]2(C)[C@H]([C@H](OC(=O)c3ccccc3)[C@]3(O)C[C@H](OC(=O)[C@H](O)[C@@H](NC(=O)c4ccccc4)c4ccccc4)C(C)=C1C3(C)C)[C@]1(OC(C)=O)CO[C@@H]1C[C@@H]2O [PACLITAXEL]
[Q] COc1cccc(C(=O)O[C@H]2[C@@H]3[C@]45CO[C@@H]4C[C@H](O)[C@@]3(C)C(=O)[C@H](OC(C)=O)C3=C(C)[C@H](C[C@]2(O)C3(C)C)OC(=O)[C@H](O)[C@@H](NC(=O)OC(C)(C)C)c2ccccc2/C=C/CC(=O)O5)c1
Exam item: Min ED50? P | Q Your answer should be the label of the entry you select.
Marked response: Q
(Q: 0.35 µM, P: 0.5 µM)

----------
# system.tested: Tubulin (Homo sapiens) (UniProt P68371+Q9H4B7+P0DPH7+P68366+Q13509+Q71U36+P04350+Q3ZCM7+P07437+P68363+Q9BQE3+Q6PEY2+Q13885+Q9BVA1+Q9BUF5)
# assay.procedure: Induction of GTP-tubulin polymerization
# Format: protein-complex assay
property.name: ED50 (nM)

[P] CC(=O)O[C@H]1C(=O)[C@@]2(C)[C@@H]3[C@H](OC(=O)c4ccccc4)[C@]4(O)C[C@H](OC(=O)[C@H](O)[C@@H](NC(=O)c5ccccc5)c5ccccc5OC/C=C\C(=O)O[C@]35CO[C@@H]5C[C@@H]2O)C(C)=C1C4(C)C
[Q] CC(=O)O[C@H]1C(=O)[C@@]2(C)[C@@H]3[C@H](OC(=O)c4ccccc4)[C@]4(O)C[C@H](OC(=O)[C@H](O)[C@@H](NC(=O)c5ccccc5)c5cccc(c5)OC/C=C\C(=O)O[C@]35CO[C@@H]5C[C@@H]2O)C(C)=C1C4(C)C
Exam item: Pick the one with the larger ED50: P vs Q Provide the label of your selected option as the answer.
Marked response: Q

----------
# system.tested: Tubulin (Homo sapiens) (UniProt P68371+Q9H4B7+P0DPH7+P68366+Q13509+Q71U36+P04350+Q3ZCM7+P07437+P68363+Q9BQE3+Q6PEY2+Q13885+Q9BVA1+Q9BUF5)
# assay.procedure: Induction of GTP-tubulin polymerization
# Type: protein-complex assay
property.name: ED50 (nM)

Below, 3 compounds whose answers are already recorded.
given.smiles	property.name	reported.value
CC(=O)O[C@H]1C(=O)[C@@]2(C)[C@@H]3[C@H](OC(=O)c4ccccc4)[C@]4(O)C[C@H](OC(=O)[C@H](O)[C@@H](NC(=O)c5ccccc5)c5ccccc5OC/C=C/CCC(=O)O[C@]35CO[C@@H]5C[C@@H]2O)C(C)=C1C4(C)C	ED50	900
CC(=O)O[C@H]1C(=O)[C@@]2(C)[C@@H]3[C@H](OC(=O)c4ccccc4)[C@]4(O)C[C@H](OC(=O)[C@H](O)[C@@H](NC(=O)c5ccccc5)c5cccc(c5)OCCCC(=O)O[C@]35CO[C@@H]5C[C@@H]2O)C(C)=C1C4(C)C	ED50	1400
CC(=O)O[C@H]1C(=O)[C@@]2(C)[C@@H]3[C@H](OC(=O)c4ccccc4)[C@]4(O)C[C@H](OC(=O)[C@H](O)[C@@H](NC(=O)c5ccccc5)c5ccccc5CCCC(=O)O[C@]35CO[C@@H]5C[C@@H]2O)C(C)=C1C4(C)C	ED50	210

[1] COc1cccc(C(=O)O[C@H]2[C@@H]3[C@]45CO[C@@H]4C[C@H](O)[C@@]3(C)C(=O)[C@H](OC(C)=O)C3=C(C)[C@H](C[C@]2(O)C3(C)C)OC(=O)[C@H](O)[C@@H](NC(=O)c2ccccc2)c2ccccc2/C=C/CC(=O)O5)c1
[2] CC(=O)O[C@H]1C(=O)[C@@]2(C)[C@@H]3[C@H](OC(=O)c4ccccc4)[C@]4(O)C[C@H](OC(=O)[C@H](O)[C@@H](NC(=O)c5ccccc5)c5cccc(c5)OCCCCCC(=O)O[C@]35CO[C@@H]5C[C@@H]2O)C(C)=C1C4(C)C
Exam item: Hi team, can someone confirm which has the larger ED50: 1 or 2 ? Thanks. Please indicate the selected item by its label.
Marked response: 2
(2: 3400 nM, 1: 570 nM)

The reported measurements were obtained from ChEMBL document CHEMBL1141391.
